Experimental System: T1, soluble cynomolgus macaque PD-1 extracellular domain (cynomolgus macaque, UniProt B0LAJ3 25-170)
T1 construct: also called Cyno PD-1; cynomolgus PD-1
T1 sequence (B0LAJ3 entry or part of it limits assumed): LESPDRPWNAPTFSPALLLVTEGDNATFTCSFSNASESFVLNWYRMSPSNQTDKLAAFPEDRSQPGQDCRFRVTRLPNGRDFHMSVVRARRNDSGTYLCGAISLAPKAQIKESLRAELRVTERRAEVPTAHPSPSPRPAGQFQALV
Test Details: SPR (Biacore 8K), 37 C, antibody captured via anti-human IgG, soluble PD-1 ECD as analyte, single cycle kinetics
# Lookup of reported Kd keyed by entry

{"Binder": "humCL19v7 (antibody, human IgG1, V domains shown, hu-VH2 + hu-VL3; human IgG1 kappa isotype) VH: QVQLVQSGAEVKKPGASVKVSCKAFGYTFTTYPIEWVRQAPGKGLEWMGNFHPYNDDTKYNEKFQGRVTMTVDKSTTTVYMELSSLRSEDTAVYYCARENYGSHGGFVYWGQGTLVTVSS VL: ENVLTQSPATLSLSPGERATLSCRASSSVISSYLHWYQQKPGQAPRLLIYSTSNLASGIPARFSGSGSGTDYTLTISSLEPEDFAVYYCQQYNSYPLTFGGGTKLEIK", "Kd / nM": 565}
{"Binder": "humCL19v3 (antibody, human IgG1, V domains shown, hu-VH1 + hu-VL3; human IgG1 kappa isotype) VH: QVQLVQSGAEVKKPGASVKVSCKAFGYTFTTYPIEWMRQAPGKGLEWIGNFHPYNDDTKYNEKFQGRVTLTVDKSSTTVYMELSSLRSEDTAVYYCARENYGSHGGFVYWGQGTLVTVSS VL: ENVLTQSPATLSLSPGERATLSCRASSSVISSYLHWYQQKPGQAPRLLIYSTSNLASGIPARFSGSGSGTDYTLTISSLEPEDFAVYYCQQYNSYPLTFGGGTKLEIK", "Kd / nM": 236}
{"Binder": "humCL19v6 (antibody, human IgG1, V domains shown, hu-VH2 + hu-VL2; human IgG1 kappa isotype) VH: QVQLVQSGAEVKKPGASVKVSCKAFGYTFTTYPIEWVRQAPGKGLEWMGNFHPYNDDTKYNEKFQGRVTMTVDKSTTTVYMELSSLRSEDTAVYYCARENYGSHGGFVYWGQGTLVTVSS VL: ENQLTQSPSSLSASVGDRVTITCRASSSVISSYLHWYQQKPGKAPKLLIYSTSNLASGVPSRFSGSGSGTDYTLTISSLQPEDFATYYCQQYRGYPLTFGGGTKLEIK", "Kd / nM": 15200}
{"Binder": "humCL19v9 (antibody, human IgG1, V domains shown, hu-VH3 + hu-VL1; human IgG1 kappa isotype) VH: QVQLVQSGSELKKPGASVKVSCKAFGYTFTTYPIEWMRQAPGQGLEWIGNFHPYNDDTKYNEGFTGRFVLSVDKSSTTVYLQISSLKAEDTAVYYCARENYGSHGGFVYWGQGTLVTVSS VL: ENQLTQSPSSLSASVGDRVTITCRASSSVISSYLHWYQQKPGKAPKLLIYSTSNLASGVPSRFSGSGSGTDYTLTISSLQPEDFATYYCQQYNSYPLTFGGGTKLEIK", "Kd / nM": 251}
